This section presents compounds with their documented IC50 values.
# SUBJECT OF TEST: AKT1 E17K (Homo sapiens, UniProt P31749, E17K)
# Construct: expressed in transfected cells; host or cells: HEK293
# Sequence (P31749 whole entry E17K): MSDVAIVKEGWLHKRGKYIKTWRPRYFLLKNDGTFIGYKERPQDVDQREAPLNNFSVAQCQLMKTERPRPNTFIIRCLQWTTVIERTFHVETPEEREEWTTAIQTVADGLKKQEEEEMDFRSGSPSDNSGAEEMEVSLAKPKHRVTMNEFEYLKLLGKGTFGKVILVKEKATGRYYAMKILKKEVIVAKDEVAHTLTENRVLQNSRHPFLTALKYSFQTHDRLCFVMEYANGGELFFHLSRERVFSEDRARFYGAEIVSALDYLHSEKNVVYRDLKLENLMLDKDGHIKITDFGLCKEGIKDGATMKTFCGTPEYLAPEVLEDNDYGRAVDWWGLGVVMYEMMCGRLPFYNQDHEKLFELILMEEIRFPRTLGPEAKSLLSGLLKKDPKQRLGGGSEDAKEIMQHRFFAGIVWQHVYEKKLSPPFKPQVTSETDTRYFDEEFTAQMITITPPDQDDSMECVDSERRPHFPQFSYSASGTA
# MEASUREMENT PROTOCOL: Live cell AKT1 E17K target engagement by NanoBRET competitive probe displacement in HEK293 cells
# Format: binding
# CONDITION: NanoBRET live cell target engagement, HEK293 cells, 2 h at 37° C.
# Experimental: Determining live cell AKT1 E17K, AKT1 WT, and AKT2 target engagement by NanoBRET competitive probe displacement. Live cell target engagement assays were performed as described (Vasta, J. D. et al. Cell Chem Biol 2018, 25(11), 206-214). […] After incubation for 2 h at 37° C., luciferase substrate and extracellular luciferase inhibitor were added to all wells, and luminescent intensity at 460 nm and 600 nm were measured on a multimode plate-reader. […]
Quick note: give the figure in nM, leave out the unit.

## Input Reported IC50 for C#Cc1ccc(C(=O)N[C@H]2CCc3cc(-n4c(-c5cccnc5N)nc5ccc(-n6cccn6)nc54)ccc32)cn1 [Compound 55] : what is it?
## Output 107

## Input Item: Nc1ncccc1-c1nc2ccc(-n3cccn3)nc2n1-c1ccc2c(c1)CC[C@@H]2NC1CCN(C(=O)c2ccccc2)CC1 [Compound 275]
## Output 570

## Input Item: Nc1ncccc1-c1nc2ccc(-n3cccn3)nc2n1-c1ccc2c(c1)CC[C@@H]2n1cc(C2CC2(F)F)nn1 (stereo partly shown) [Compound 362]
## Output 138

## Input Item: COc1cc(C(=O)N[C@H]2CCc3cc(-n4c(-c5cccnc5N)nc5ccc(-n6cccn6)nc54)ccc32)cc(C)n1 [Compound 280]
## Output 33.7

Entry source: patent US12624034B2
